TARGET OF ASSAY: Inhibitor of nuclear factor kappa-B kinase subunit epsilon (Homo sapiens)
Sequence (Q14164 whole entry): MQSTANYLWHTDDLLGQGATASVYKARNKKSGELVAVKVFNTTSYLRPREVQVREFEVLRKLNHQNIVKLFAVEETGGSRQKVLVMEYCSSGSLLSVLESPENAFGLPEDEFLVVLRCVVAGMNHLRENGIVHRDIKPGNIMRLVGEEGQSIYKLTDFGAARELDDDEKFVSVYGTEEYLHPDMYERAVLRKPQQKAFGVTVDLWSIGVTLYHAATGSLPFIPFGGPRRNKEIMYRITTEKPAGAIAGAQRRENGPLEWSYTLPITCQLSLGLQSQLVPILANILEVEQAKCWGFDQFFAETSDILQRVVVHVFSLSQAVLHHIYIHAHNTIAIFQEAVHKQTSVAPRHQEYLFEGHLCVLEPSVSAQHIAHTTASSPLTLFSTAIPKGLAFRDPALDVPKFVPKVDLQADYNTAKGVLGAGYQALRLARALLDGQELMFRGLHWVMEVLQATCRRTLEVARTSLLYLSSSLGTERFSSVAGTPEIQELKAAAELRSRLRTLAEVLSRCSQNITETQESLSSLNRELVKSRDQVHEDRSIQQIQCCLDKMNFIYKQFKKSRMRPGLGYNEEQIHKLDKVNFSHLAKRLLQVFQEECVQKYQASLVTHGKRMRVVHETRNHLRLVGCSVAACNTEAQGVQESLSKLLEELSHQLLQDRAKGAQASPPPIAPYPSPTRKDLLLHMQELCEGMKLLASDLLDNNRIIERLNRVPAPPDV
pIC50: −log10 of the molar value.
READOUT TYPE: pIC50

1) COc1ccc(F)cc1-c1nc2c(NCCCNC(=O)C3CCC3)c(Br)cnc2[nH]1 :: 6.91
2) CNc1c(Br)cnc2nc(-c3ccnc(N)c3)[nH]c12 :: 6.92
3) COc1ccc(-c2nc3c(NCCCNC(=O)C4CC4)c(Br)cnc3[nH]2)cc1 :: 6.94
4) COc1ccc(-c2nc3c(NCCCNC(=O)C(C)C)c(Br)cnc3[nH]2)cc1 :: 7.08
